# MEASUREMENT DESCRIPTION: physchem
# CONDITIONS: octan-1-ol/water, pH 7.4, LogD7.4
Listed compounds paired with reported logD
Give the value as a plain number.

CCN1CCN(CC(=O)Nc2ccc(-c3cccc4c(=O)cc(N5CCOCC5)oc34)c3sc4ccccc4c23)CC1	3.05

Ask | Please report the recorded logD for N#Cc1cnn2c(NC3CC3)cc(-n3ccc4ccc(CO)cc43)nc12 .
Reply | 3.09

Ask | Param item: CC(C)(C)OC(=O)N1CCC(OCc2nc(-c3ccncc3)no2)CC1
Reply | 3

====

# MEASUREMENT DESCRIPTION: in vitro
# CONDITIONS: human, plasma, PPB
Record satisfied whenever fraction unbound at 5 h is at 0.04 or higher; record not satisfied when lower.

Example results:
O=c1cc(-c2cccnc2)[nH]c2cc(Cc3ccccc3)ccc12	not satisfied
COc1ccc2c(c1)N(CCN1CCC(NCc3ccc4c(n3)NC(=O)CO4)CC1)C(=O)CC2	satisfied
COc1cc(OC)c(S(=O)(=O)N2c3ccccc3CCC2C)cc1NC(=O)CSCC(=O)O (stereo not drawn)	satisfied
Cc1nc(Cl)c(Cl)n1Cc1sc2c(c1C(=O)N1CC[C@@H](O)C1)c(=O)n(C)c(=O)n2CC(C)C	satisfied
CC(C)(C)c1ccc2c(c1)CC[C@H]2NC(=O)Nc1cccc2[nH]ncc12	not satisfied
C[C@H](Nc1ncc(Cl)c(Nc2cc(N(C)C)[nH]n2)n1)c1ncc(F)cn1	satisfied
CN1CCN(CC(=O)N2c3ccccc3C(=O)Nc3cccnc32)CC1 [PIRENZEPINE]	satisfied
CC#Cc1cncc(-c2csc([C@]3(C)CC(=O)N(C)C(N)=N3)c2)c1	satisfied

Ask | Check if fraction unbound at 5 h >= 0.04 (inclusive). Item: Cc1cc(Nc2nc(N[C@@H](C)c3ncc(F)cn3)c(C#N)nc2C)n[nH]1
Reply | satisfied

Ask | And for CC(Cc1ccccn1)N1C(=O)c2ccccc2C1C(=O)NCc1ccc(OC(F)(F)F)cc1 (stereo not drawn) ?
Reply | not satisfied

Ask | Also, CCN(CC)CCNC(=O)c1ccc(NS(C)(=O)=O)cc1 [SEMATILIDE] please.
Reply | satisfied

Ask | Please do the same for CNc1cc2[nH]c(=O)n(-c3ccc(NC(=O)NS(=O)(=O)c4ccc(Cl)s4)cc3)c(=O)c2cc1F as well.
Reply | not satisfied

Ask | Please do the same for Clc1ccc(C(c2ccccc2)N2CCNCC2)cc1 (stereo not drawn) as well.
Reply | satisfied

Ask | And what about the molecule O=CNc1cc([C@@H](O)CNCCc2ccc(NC[C@H](O)c3ccccc3)cc2)ccc1O ?
Reply | satisfied

Ask | // next record O=C1COC2(CCN(S(=O)(=O)c3ccc(-c4ccc5cnccc5c4)cc3)CC2)CN1C1CC1
Reply | not satisfied

Recorded values, source ChEMBL document CHEMBL3301361.
